System: DeltatarO mutant
Assay: S. aureus survival, RN4220 and DeltatarO strains – OD600, teichoic acid synthesis inhibitors, primary screen (AID 463173)
Conditions: S. aureus RN4220 wild type/DeltatarO growth, OD600, 18 h, stronger effect = lower value, screened at 18.75 µg/mL (by protocol)
Out of some 52,000 compounds screened, about 4,300 (8.3%) were called active. The entries come from a sample that favours actives as a whole.
QUANTITY KIND: survival

MOLECULE	survival
CC(C)COc1ccc(-c2nnn(CC(=O)N3C(C)CCCC3C)n2)cc1 (configuration not stated)	69% (active)

Dear reader, for each entry below, please note its survival.
1. CCOc1ccc(-c2nnn(CC(=O)NC3CCCCC3)n2)cc1
2. COc1ccccc1CNC(=O)c1c(O)nc2c(C)cccn2c1=O
3. COc1ccc(OC)c(NC(=O)c2cc3c(s2)-c2ccccc2SC3)c1
4. Cc1ccc2c(=O)c(C(=O)c3ccc(F)cc3)cn(CC(=O)Nc3ccc4c(c3)OCCO4)c2n1
5. COc1ccc(CNC(=O)C(=O)NCC(c2ccco2)S(=O)(=O)c2ccc(C)cc2)cc1 (configuration not stated)
6. COc1cccc(-c2nc(SCc3cc(=O)c4cc(Cl)ccc4[nH]3)n[nH]2)c1
7. CC(=O)c1cc(-c2ccc(F)cc2)n(CC(=O)NC2CCC(C)CC2)c1C (configuration not stated)
8. CSc1ncc(Cl)c(C(=O)Nc2ccc(S(=O)(=O)N3CCC(C)CC3)cc2)n1

1: 75% (inactive); 2: 69% (inactive); 3: 65% (inactive); 4: 77% (inactive); 5: 124% (inactive); 6: 94% (inactive); 7: 67% (inactive); 8: 62% (inactive)

Dear reader, for each entry below, please note its survival.
1. Cc1ccc(S(=O)(=O)c2[nH]c(-c3ccccc3)nc2SCC(=O)O)cc1
2. COc1ccccc1C(=O)n1nc(-c2cccnc2)nc1NCc1ccccc1
3. CCN1CCN(CCCNC(=O)c2cc3c(=O)n(CC)c4ccccc4c3s2)CC1
4. C=CCNC(=S)N1CCC(C(=O)c2ccc(C)cc2)CC1

1: 78% (inactive); 2: 64% (inactive); 3: 97% (inactive); 4: 103% (inactive)

Dear reader, for each entry below, please note its survival.
1. CN1C(=O)Cc2cc(S(=O)(=O)N3CCN(c4ccccc4F)CC3)ccc21
2. CCOC(=O)c1c(NC(=O)c2ccc(S(=O)(=O)N(CC(C)C)CC(C)C)cc2)sc2c1CCN(C(=O)OCC)C2
3. Nn1c(SCCC(=O)O)nnc1-c1ccccc1
4. O=C(O)CCn1cnc2sc3c(c2c1=O)CCCC3

["107% (inactive)", "124% (inactive)", "83% (inactive)", "105% (inactive)"]

====

System: DeltatarO mutant
Assay: S. aureus survival, RN4220 and DeltatarO strains – OD600, teichoic acid synthesis inhibitors, primary screen (AID 463173)
Details: S. aureus RN4220 wild type/DeltatarO growth, OD600, 18 h, screened at 18.75 µg/mL (by protocol)
Among all 52,000 compounds or so, about 4,300 (8.3%) were called active. Cut-off read from the data, not from the text of the source: active = survival mostly below about 52% (no sharp cut-off); inactive = mostly above about 56%. The full list was thinned out, with actives kept by preference.
Write down one outcome, taken from active, inactive

Consider the worked cases shown below.
MOLECULE	SUBJECT OF TEST	CAT
Cc1cc(C)c2c(n1)SCC(=O)N2CC(=O)Nc1c(C)cccc1C	DeltatarO mutant	inactive
COc1ccc(NS(=O)(=O)c2nnc(NC(=O)c3ccccc3F)s2)cc1	DeltatarO mutant	inactive
CCN(c1ccccc1C)S(=O)(=O)c1nnc(NC(=O)c2ccc(OC)c(OC)c2)s1	DeltatarO mutant	active
CCC(Oc1ccccc1)C(=O)Nc1nnc(S(=O)(=O)N(CC)CC)s1 (stereo not given)	DeltatarO mutant	inactive

Test call, this molecule: COc1ccccc1-c1ccnc2c(-c3ccc(Br)cc3)c(C)nn12
inactive

====

System: DeltatarO mutant
Experiment: S. aureus survival, RN4220 and DeltatarO strains – OD600, teichoic acid synthesis inhibitors, primary screen (AID 463173)
Conditions: S. aureus RN4220 wild type/DeltatarO growth, OD600, 18 h, stronger effect = lower value, screened at 18.75 µg/mL (by protocol)
Screen size: about 52,000 compounds; about 4,300 (8.3%) were called active. This is one part of a sample in which actives are shown more often than they occur.
QUANTITY KIND: survival (%)
Answers are plain numbers, in %.

Check out these entries, answers already filled in.
COMPOUND	SUBJECT OF TEST	survival [%]
Cc1cc(C)cc(NC(=O)C(=O)NCC(c2ccc3c(c2)OCO3)N2CCOCC2)c1 (stereo not given)	DeltatarO mutant	107
COc1ccccc1NC(=O)C1=C(C)Nc2nnnn2C1c1ccc(C(F)(F)F)cc1 (stereo not given)	DeltatarO mutant	66
COc1cccc(CSc2nc3cc(OC)c(OC)cc3c3nc(CCn4nc(C)cc4C)nn23)c1	DeltatarO mutant	60
COc1cc2nc(SCc3cccc(Cl)c3)n3nc(CCn4nc(C)cc4C)nc3c2cc1OC	DeltatarO mutant	79
COc1ccc(NC(=O)C2=C(C)Nc3ncnn3C2c2ccc[nH]2)cc1 (stereo not given)	DeltatarO mutant	94

Dear reader, for each entry below, please note its survival.
1. CCOC(=O)c1ccc(NC(=O)CC2C(=O)OCCN2CC)cc1 (stereo not given)
2. COc1ccccc1NC(=O)C1=C(C)Nc2nc3ccccc3n2C1c1ccccc1Cl (stereo not given)
3. CCN1CCOC(=O)C1CC(=O)Nc1cc(C)cc(C)c1 (stereo not given)
4. CCN1CCOC(=O)C1CC(=O)Nc1ccc(C(C)=O)cc1 (stereo not given)

1. 61
2. 62
3. 142
4. 59

// returns reported survival for input CC1=C(C(=O)Nc2ccccc2)C(c2ccc[nH]2)n2ncnc2N1 (stereo not given)
20

====

System: DeltatarO mutant
Test: S. aureus survival, RN4220 and DeltatarO strains – OD600, teichoic acid synthesis inhibitors, primary screen (AID 463173)
Conditions: S. aureus RN4220 wild type/DeltatarO growth, OD600, 18 h, stronger effect = lower value, screened at 18.75 µg/mL (by protocol)
The campaign covered roughly 52,000 compounds. About 4,300 (8.3%) were called active. What follows is part of a selection rich in actives, with near analogues and random picks from the rest.
QUANTITY KIND: survival (%)
Answers are plain numbers, in %.

COMPOUND	SUBJECT OF TEST	survival / %
Cc1ccc(CCNC(c2ccc(F)cc2)c2nnc(-c3ccccc3Cl)o2)cc1 (stereo unspecified)	DeltatarO mutant	-8
Fc1ccc(C(Nc2ccccc2Cl)c2nnc(-c3ccccc3Cl)o2)cc1 (stereo unspecified)	DeltatarO mutant	83
COc1cc(/C=C(\C#N)c2nc3ccc(C)cc3[nH]2)ccc1OCc1ccc(C)cc1	DeltatarO mutant	59
COc1cc(/C=C(\C#N)c2nc3ccccc3[nH]2)ccc1OCc1ccc(F)cc1	DeltatarO mutant	70

Dear reader, for each entry below, please note its survival.
1. CCCc1c(C)c2ccc(O)c(CN3CCN(c4ccc(F)cc4)CC3)c2oc1=O
2. O=C1c2ccccc2C(=O)N1CCCn1nnc(-c2ccc(N3CCOCC3)cc2)n1
3. O=C(N/N=C/c1ccccc1)C(O)c1ccccc1 (stereo unspecified)
4. CCOc1ccc(-c2ccc(NS(=O)(=O)c3cc(C)ccc3OC)cc2)nn1
5. Fc1ccc(NCc2ccccc2-c2nnc(-c3ccccc3Cl)o2)cc1

[52, 74, 95, 86, 88]

Dear reader, for each entry below, please note its survival.
1. CCC(=O)Oc1ccc(/C=C(\C#N)c2nc3ccccc3[nH]2)cc1OC
2. Cc1cc(C)c(NC(=O)Cn2cnc3c(oc4ccccc43)c2=O)c(C)c1
3. COc1cccc(CNC(=O)CN2C(=O)N(c3ccc(C)cc3C)S(=O)(=O)c3ccccc32)c1OC

47
69
65

Dear reader, for each entry below, please note its survival.
1. Cc1cccc(C(=O)OCc2cc(=O)n3nc(-c4cccs4)sc3n2)c1
2. COc1ccc(-c2cccc(NS(=O)(=O)c3cc(C)c(Cl)cc3C)c2)nn1
3. O=C(Cn1cc(SCc2ccc(C(F)(F)F)cc2)c2ccccc21)N1CCCC1
4. CC(C)C(=O)N1C2CCC1CC(O)(c1ccccc1F)C2 (stereo unspecified)
5. CCN(CCCNC(=O)Cn1ncc2c([nH]c3ccc(C)cc32)c1=O)c1ccccc1
6. CCOc1ccc(-c2cc3nc(C4CCN(C(=O)OC(C)(C)C)CC4)c(C(=O)Nc4cccc(Cl)c4C)cn3n2)cc1
7. COc1ccc(/C=C(\C#N)c2nc3ccccc3c(=O)[nH]2)cc1OC

1: 101; 2: 102; 3: 55; 4: 86; 5: 115; 6: 81; 7: 86

Dear reader, for each entry below, please note its survival.
1. CCc1cccc(C)c1Nc1c(-c2ccc(SC)cc2)nc2sccn12
2. Cc1ccc(CSc2nc3c([nH]c4ccccc43)c(=O)n2C)cc1

[50, 94]

====

Test system: DeltatarO mutant
Assay: S. aureus survival, RN4220 and DeltatarO strains – OD600, teichoic acid synthesis inhibitors, primary screen (AID 463173)
Conditions: S. aureus RN4220 wild type/DeltatarO growth, OD600, 18 h, screened at 18.75 µg/mL (by protocol)
Among all 52,000 compounds or so, about 4,300 (8.3%) were called active. Cut-off read from the data, not from the text of the source: active = survival mostly below about 52% (no sharp cut-off); inactive = mostly above about 56%. Only a selection was taken, and actives are over-represented in it overall.
Write down one outcome, taken from 1 for active, 0 for inactive

Consider the worked cases shown below.
COc1ccccc1NC(=O)Cn1c(=O)n(CCc2ccccc2)c(=O)c2sc3ccccc3c21 0
O=c1c2sc3ccccc3c2n(Cc2ccc(F)cc2)c(=O)n1Cc1ccccc1 0
O=c1c2sc3ccccc3c2n(Cc2cccc(Cl)c2)c(=O)n1Cc1ccccc1 0
O=c1c2sc3ccccc3c2n(Cc2cccc(Cl)c2)c(=O)n1Cc1ccc(F)cc1 1
Cc1ccccc1NC(=O)Cn1c(=O)n(Cc2ccccc2)c(=O)c2sc3ccccc3c21 0

Test call, this compound: COc1cc(NC(=O)c2ccc3c(Cl)c4c(nc3c2)CCC4)cc(OC)c1OC
0

Test call, this compound: CCCCCn1c(=O)[nH]c2cc(C(=O)NCc3ccc(Cl)cc3)ccc2c1=O
0
